For each record, write down the corresponding Activity.
System: Mus musculus
Assay: Effect on phosphorus level in ovariectomized mouse at 0.1103 mmol/kg, ip once daily for 4 weeks
Assay type: functional
Where a SMILES comes first, the peptide text is derived from it. The star is where a group is joined. Succinyl(O17-estradiol) = C[C@]12CC[C@@H]3c4ccc(O)cc4CC[C@H]3[C@@H]1CC[C@@H]2OC(=O)CCC(=O)*; X2 = C[C@]12CC[C@@H]3c4ccc(OCC(=O)*)cc4CC[C@H]3[C@@H]1CCC2=O; X1 = C[C@]12CC[C@@H]3c4ccc(OCC(=O)*)cc4CC[C@H]3[C@@H]1CCC2O
Give bare numbers, in %.

Guide cases for Activity, answers given:
| molecule | test target | Activity, % |
| --- | --- | --- |
| C[C@]12CC[C@@H]3c4ccc(OCC(=O)N[C@@H](CCCNC(=N)N)C(=O)NCC(=O)N[C@@H](CC(=O)O)C(=O)N[C@@H](Cc5ccccc5)C(=O)O)cc4CC[C@H]3[C@@H]1CCC2O (stereo not given in full) (X1-RGDF-OH) | Mus musculus | 25.46 |
| CC(C)[C@H](NC(=O)[C@H](CC(=O)O)NC(=O)CNC(=O)[C@@H](N)CCCNC(=N)N)C(=O)O (H-RGDV-OH) | Mus musculus | 24.759 |
| C[C@]12CC[C@@H]3c4ccc(O)cc4CC[C@H]3[C@@H]1CC[C@@H]2OC(=O)CCC(=O)N[C@@H](CCCNC(=N)N)C(=O)NCC(=O)N[C@@H](CC(=O)O)C(=O)N[C@@H](Cc1ccccc1)C(=O)O ({Succinyl(O17-estradiol)}-RGDF-OH) | Mus musculus | 24.665 |
| N=C(N)NCCC[C@H](N)C(=O)NCC(=O)N[C@@H](CC(=O)O)C(=O)N[C@@H](Cc1ccccc1)C(=O)O (H-RGDF-OH) | Mus musculus | 24.585 |

Proceed to the following item.
For reference, reported Activity for CC(C)[C@H](NC(=O)[C@H](CC(=O)O)NC(=O)CNC(=O)[C@H](CCCNC(=N)N)NC(=O)COc1ccc2c(c1)CC[C@@H]1[C@@H]2CC[C@]2(C)C(=O)CC[C@@H]12)C(=O)O (X2-RGDV-OH) stands at 24.75
